System: A498 renal
Test: NCI tumour cell line growth inhibition, 48 h
measurement-label: TGI

Here's what some known entries look like.
- C[N+](C)(C)CCCCCc1c2nc(c(CCCCC[N+](C)(C)C)c3ccc([nH]3)c(CCCCC[N+](C)(C)C)c3ccc([nH]3)c(CCCCC[N+](C)(C)C)c3nc1C=C3)C=C2: > 100 µM
- C[Si](C)(C)C#C[I+]c1ccccc1: > 100 µM

[in] Item C#CCNC(Cc1ccccc1)C(=O)O (stereo not drawn) : provide TGI
[out] > 100 µM

###

Collected TGI values appear next to each entry.
System: SF-268 CNS
Test: NCI tumour cell line growth inhibition, 48 h

• Cc1ccc(S(=O)(=O)N2CCCCC2CCO)cc1 (centres undefined) = > 100 µM

[in] Item O=C1C(c2ccccc2)=C(c2ccccc2)C(c2ccccc2)/C1=C1\C(=O)C(c2ccccc2)=C(c2ccccc2)C1c1ccccc1 (centres undefined) : provide TGI
[out] > 100 µM

[in] Item N#Cc1ccc(Nc2nc3nc[nH]c3c(=O)[nH]2)cc1 : provide TGI
[out] > 100 µM

[in] Item COc1cccc(-n2nnc3c(N)nc(N)nc32)c1 : provide TGI
[out] > 100 µM

###

Tested on: SF-539 CNS
Test: NCI tumour cell line growth inhibition, 48 h
measurement-label: TGI

Here's what some known entries look like.
• CC(=O)O[C@H]1CC[C@@]2(C)C(=CC[C@@H]3C2CC[C@]2(C)Nc4oncc4CC32)C1 (stereo partly specified) = > 100 µM
• Cc1c2c(nn1-c1ccc(S/N=C3\SCC(=O)CN3c3ccccc3)cc1)-c1ccccc1CC2 = > 50 µM
• COc1ccc(-n2c(N)c(C(=O)NCCN3CCOCC3)c3nc4ccccc4nc32)cc1OC = > 100 µM
• Cc1cc2c(=O)cc(-c3ccc(Cl)cc3)oc2c(C(=O)O)c1C = > 100 µM
• CCOc1ccc(N=NC2C(=O)N(C(=O)CC(=O)Nc3ccc(Cl)cc3)N=C2C)cc1 (stereo unspecified) = > 100 µM
• N#CC(C(=O)c1ccccc1F)c1nc2cc(C(F)(F)F)ccc2s1 (stereo unspecified) = 78.5 µM
• C[N+](C)(C)CCCCCc1c2nc(c(CCCCC[N+](C)(C)C)c3ccc([nH]3)c(CCCCC[N+](C)(C)C)c3ccc([nH]3)c(CCCCC[N+](C)(C)C)c3nc1C=C3)C=C2 = > 100 µM
• CCOC(=O)c1ccc(N=C/C=C(\Nc2ccc(C(=O)OCC)cc2)c2ccc3ccccc3c2)cc1 = 39.2 µM

[in] Item Cn1c2ccccc2n2c(=O)c(-c3ccc(O)cc3)nnc12 : provide TGI
[out] > 100 µM

[in] Item O=C(Nc1ccccc1Cl)c1ccc(NC2=C(Cl)C(=O)N(Cc3ccccc3)C2=O)cc1 : provide TGI
[out] > 100 µM

[in] Item Cn1cc(C(=O)C2CCCCC2)ccc1=O : provide TGI
[out] > 100 µM

###

Collected TGI values appear next to each entry.
System: IGROV1 ovarian
Assay: NCI tumour cell line growth inhibition, 48 h
Unit µM implied. Number only.

- CCOC(=O)c1c(OCC)[nH]c(=O)c(C(c2ccc(F)cc2)c2c(O)c(C(=O)OCC)c(OCC)[nH]c2=O)c1O: 30.3

Let's switch to this compound now.
[in] # return TGI of C=C1C(=O)O[C@H]2[C@H]1CC/C(Cn1cc(CCC)nn1)=C\CC[C@@]1(C)O[C@@H]21 (system: IGROV1 ovarian)
[out] 20.2
